system-tested: BRD9 (Homo sapiens)
Sequence (Q9H8M2 whole entry): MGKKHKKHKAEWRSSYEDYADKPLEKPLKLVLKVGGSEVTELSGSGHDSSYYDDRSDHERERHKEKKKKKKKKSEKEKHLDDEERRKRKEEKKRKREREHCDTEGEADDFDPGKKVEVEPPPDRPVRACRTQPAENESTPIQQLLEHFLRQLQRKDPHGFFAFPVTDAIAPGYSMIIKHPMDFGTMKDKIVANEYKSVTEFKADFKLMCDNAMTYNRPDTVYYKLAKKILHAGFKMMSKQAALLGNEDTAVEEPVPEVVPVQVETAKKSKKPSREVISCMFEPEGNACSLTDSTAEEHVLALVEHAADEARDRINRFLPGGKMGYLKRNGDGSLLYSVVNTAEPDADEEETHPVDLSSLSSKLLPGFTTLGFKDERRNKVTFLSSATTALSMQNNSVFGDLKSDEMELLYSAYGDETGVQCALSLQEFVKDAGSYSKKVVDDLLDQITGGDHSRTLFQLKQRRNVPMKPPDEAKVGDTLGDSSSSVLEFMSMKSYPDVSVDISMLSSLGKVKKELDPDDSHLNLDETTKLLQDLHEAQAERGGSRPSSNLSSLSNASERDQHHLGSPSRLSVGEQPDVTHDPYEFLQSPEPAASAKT
assay-remarks: BRD9 degradation, HiBiT-BRD9 KI HEK293 (LgBiT) cells, NanoGlo Lytic Endpoint assay (Assay Protocol 1)
Assay type: cell-based
measurement-setup: Assay protocol 1; BRD9 degradation; read-out: DC50
observed-property: DC50

>>> print(df.to_string())
                                   compound  reported_measurement
0  COc1cc(-c2cn(C)c(=O)c(C)c2C)cc(OC)c1CN(C)C(=O)c1ccc2c(c1)CCN(C(=O)/C(C#N)=C/c1cccc(Br)n1)C2C (mixture of isomers)         25 to 1000 nM
1  COc1cc(-c2cn(C)c(=O)c(C)c2C)cc(OC)c1CN1CCN(Cc2cccc3c2CCN(C(=O)/C(C#N)=C/c2cc(C)on2)C3C)CC1 (mixture of isomers)         1.25 to 10 nM
2  COc1ccc(/C=C(\C#N)C(=O)N2CCc3c(CN4CCN(Cc5c(OC)cc(-c6cn(C)c(=O)c(C)c6C)cc5OC)CC4)cccc3C2C)nc1 (mixture of isomers)         1.25 to 10 nM
3  COc1cc(-c2cn(C)c(=O)c(C)c2C)cc(OC)c1CN1CCN(c2cccc(C3CCCN3C(=O)/C(C#N)=C/C(C)(C)C)c2)CC1 (mixture of isomers)         1.25 to 10 nM
4  COc1cc(-c2cn(C)c(=O)c(C)c2C)cc(OC)c1CN1CCN(Cc2cccc3c2CCN(C(=O)/C(C#N)=C/c2nc(C(F)(F)F)cs2)C3C)CC1 (mixture of isomers)             < 1.25 nM
5  COc1cc(-c2cn(C)c(=O)c(C)c2C)cc(OC)c1CN1CCN(Cc2cccc3c2CCN(C(=O)/C(C#N)=C/c2cc(C(F)(F)F)ccn2)C3C)CC1 (mixture of isomers)             < 1.25 nM

Take each entry in turn and give its DC50.
1. COc1cc(-c2cn(C)c(=O)c(C)c2C)cc(OC)c1CN1CCN(Cc2cccc3c2CCN(C(=O)/C(C#N)=C/C2(C)CC2)C3C)CC1 (mixture of isomers)
2. COc1cc(-c2cn(C)c(=O)c(C)c2C)cc(OC)c1CN1CCN(Cc2cccc3c2CCN(C(=O)/C(C#N)=C/C24CC(C2)C4)C3C)CC1 (mixture of isomers)
3. CCCC(c1cccc(CCC(=O)N2CCN(Cc3c(OC)cc(-c4cn(C)c(=O)c(C)c4C)cc3OC)CC2)c1)N(C)C(=O)/C(C#N)=C/c1nccs1 (mixture of isomers)
4. COc1cc(-c2cn(C)c(=O)c(C)c2C)cc(OC)c1CN1CCC2(C1)CN(c1cccc3c1CCN(C(=O)/C(C#N)=C/C(C)(C)C)C3C)C2 (mixture of isomers)
5. COc1cc(-c2cn(C)c(=O)c(C)c2C)cc(OC)c1CN1CCN(C(=O)c2cccc(C3CCCN3C(=O)/C(C#N)=C/c3nccs3)c2)CC1 (stereo not shown)
6. CCCC(c1ccccc1CCC(=O)N1CCN(Cc2c(OC)cc(-c3cn(C)c(=O)c(C)c3C)cc2OC)CC1)N(C)C(=O)/C(C#N)=C/c1nccs1 (mixture of isomers)

["> 1000 nM", "< 1.25 nM", "10 to 25 nM", "< 1.25 nM", "10 to 25 nM", "1.25 to 10 nM"]

What measured DC50 is associated with COc1cc(-c2cn(C)c(=O)c(C)c2C)cc(OC)c1CN1CCN(Cc2cccc3c2CCN(C(=O)/C(C#N)=C/C2(C)CCOCC2)C3C)C2(CC2)C1 (mixture of isomers) on BRD9 (Homo sapiens)? 1.25 to 10 nM
